Assay Summary: Light stability test (Test Example 4)
Format: physicochemical
Measurement Parameters: direct sunlight between glass plates, 12° C., 4 hrs., relative to aluminum foil-covered control; read-out: Residue (%) Exposure time 4 hrs.
In this section we review reported remaining at 4 h values for a set of compounds.
The answer is to be given in %; state only the numeric part.

>  <Compound>
CC(C)C(CC=C(Cl)Cl)C(=O)OCc1cccc(Oc2ccccc2)c1 (centres unmarked) [Compound [5]]

>  <Value Unit>
%

>  <remaining at 4 h>
99

$$$$
>  <Compound>
C#CC(OC(=O)C(CC=C(Br)Br)C(C)C)c1cccc(Oc2ccccc2)c1 (centres unmarked) [Compound [10]]

>  <Value Unit>
%

>  <remaining at 4 h>
97

$$$$
>  <Compound>
CC(C)C(C=C(Cl)Cl)C(=O)OC(C#N)c1cccc(Oc2ccccc2)c1 (centres unmarked) [Compound [1]]

>  <Value Unit>
%

>  <remaining at 4 h>
93

$$$$
>  <Compound>
CC(C)(CC=C(Cl)Cl)CC(=O)OCc1cccc(Oc2ccccc2)c1 [Compound [11]]

>  <Value Unit>
%

>  <remaining at 4 h>
100

$$$$

// switching to the query compound
Req: Which remaining at 4 h value is on record for CC(C)(CC=C(Cl)Cl)CC(=O)OC(C#N)c1cccc(Oc2ccccc2)c1 (centres unmarked) [Compound [12]] ?
Resp: 92

----------
Tested on: green rice leafhoppers
Assay Summary: Spray test on rice seedlings against green rice leafhoppers (Utility Example 1)
Assay type: in vivo, green rice leafhoppers (Nephotettix cincticeps)
Measurement Parameters: 30% emulsifiable concentrate (Formulation Example 5) diluted 300-fold, 10 ml/pot, 24 hours
Measured Endpoint: Mortality (%)

// solved cases for Mortality (%) follow
>  <Compound>
C#CC(OC(=O)C(CC=C(Br)Br)C(C)C)c1cccc(Oc2ccccc2)c1 (centres unmarked) [Compound [10]]

>  <System Under Test>
green rice leafhoppers

>  <Result>
not less than 90%

$$$$
>  <Compound>
CC(C)C(CC=C(Br)Br)C(=O)OC(C#N)c1cccc(Oc2ccccc2)c1 (centres unmarked) [Compound [9]]

>  <System Under Test>
green rice leafhoppers

>  <Result>
not less than 90%

$$$$
>  <Compound>
CC(C)C(CC=C(Cl)Cl)C(=O)OC(C#N)c1cccc(Oc2ccccc2)c1 (centres unmarked) [Compound [6]]

>  <System Under Test>
green rice leafhoppers

>  <Result>
not less than 90%

$$$$
>  <Compound>
C#CC(OC(=O)C(C=C(Cl)Cl)C(C)C)c1cccc(Oc2ccccc2)c1 (centres unmarked) [[2]]

>  <System Under Test>
green rice leafhoppers

>  <Result>
not less than 90%

$$$$

Req: Which Mortality (%) value is on record for C#CC(OC(=O)CC(C)(C)CC=C(Cl)Cl)c1cccc(Oc2ccccc2)c1 (centres unmarked) [Compound [13]] ?
Resp: not less than 90%

The measurements presented in this section are drawn from patent US4409238A.
